# ASSAY_SYSTEM: recombinant human Lp-PLA2 (Homo sapiens)
# Sequence (Q13093 22-441): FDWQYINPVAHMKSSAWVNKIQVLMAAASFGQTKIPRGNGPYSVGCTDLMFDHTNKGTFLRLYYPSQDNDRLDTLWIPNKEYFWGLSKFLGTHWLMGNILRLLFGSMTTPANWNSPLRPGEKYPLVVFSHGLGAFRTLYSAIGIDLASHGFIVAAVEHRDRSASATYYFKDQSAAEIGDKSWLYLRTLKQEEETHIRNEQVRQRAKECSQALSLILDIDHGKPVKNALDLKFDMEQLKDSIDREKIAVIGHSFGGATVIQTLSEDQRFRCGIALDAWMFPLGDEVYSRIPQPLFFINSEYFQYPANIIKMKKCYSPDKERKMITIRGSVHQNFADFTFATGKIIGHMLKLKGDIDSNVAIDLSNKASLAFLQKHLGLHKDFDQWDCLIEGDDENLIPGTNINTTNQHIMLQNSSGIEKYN
# ASSAY_EXPLANATION: Recombinant human Lp-PLA2 assay (rhLp-PLA2, PED6 assay)
# Assay type: biochemical
# SETUP_CONDITIONS: lower bounds; read-out: pIC50 values in the PED6 assay (converted)
OBSERVATION_TYPE: IC50

>  <COMPOUND>
C[C@H]1Cn2c(cc(OCc3ccc(Oc4ccc(Cl)c(C#N)c4)c(F)c3)nc2=O)N1C [Example E89]

>  <IC50>
≤ 1 nM

$$$$
>  <COMPOUND>
N#Cc1cc(COc2cc3n(c(=O)n2)CCN3C2CC2)ccc1Oc1cccc(C(F)(F)F)c1 [Example E18]

>  <IC50>
≤ 1 nM

$$$$
>  <COMPOUND>
C[C@H]1Cn2c(cc(OCc3cc(F)c(Oc4cccc(F)c4)c(F)c3)nc2=O)N1C [Example E76]

>  <IC50>
≤ 1 nM

$$$$

IC50 of C[C@H]1Cn2c(cc(OCc3ccc(Oc4ccc(F)cc4)c(F)c3)nc2=O)N1C [Example E94] on recombinant human Lp-PLA2 (Homo sapiens)?
≤ 10 nM

Please answer likewise for CN1c2cc(OCc3cc(F)cc(F)c3)nc(=O)n2CC1(C)C [Example E114]
≤ 1 nM

Lookup C[C@H]1Cn2c(cc(OCc3ccc(Oc4cccc(F)c4)c(F)c3)nc2=O)N1 [Example E28]
≤ 10 nM

Follow-up item: C[C@H]1Cn2c(cc(OCc3cc(F)c(Oc4ccc(C(F)(F)F)nc4)c(F)c3)nc2=O)N1C [Example E73]
≤ 1 nM

What about CN1c2cc(OCc3ccc(Oc4ccc(F)nc4)c(F)c3)nc(=O)n2CC1(C)C [Example E98] ?
≤ 1 nM

###

Overview of reported IC50 across a group of compounds:
# ASSAY_SYSTEM: Lp-PLA2 in human plasma (Homo sapiens, UniProt Q13093)
# Construct: from tissue; host or cells: pooled human plasma
# Sequence (Q13093 22-441): as above
# ASSAY_EXPLANATION: Lp-PLA2 human plasma assay (Thio-PAF assay)
# Type: biochemical
# SETUP_CONDITIONS: pooled human plasma; lower bounds; read-out: pIC50 values in the thio-PAF assay (converted)

Some compounds with known IC50 results, for comparison:
>  <COMPOUND>
C[C@H]1Cn2c(cc(OCc3cc(F)c(Oc4ccnc(C(F)(F)F)c4)c(F)c3)nc2=O)N1 [Example E131]

>  <REPORTED_VALUE>
≤ 100 nM

$$$$
>  <COMPOUND>
CC1(C)Cn2c(cc(OCc3ccc(Oc4ccc(Cl)nc4)c(F)c3)nc2=O)N1 [Example E44]

>  <REPORTED_VALUE>
≤ 100 nM

$$$$
>  <COMPOUND>
C[C@@H]1Cn2c(cc(OCc3ccc(Oc4ccnc(C(F)(F)F)c4)c(F)c3)nc2=O)N1C [Example E51]

>  <REPORTED_VALUE>
≤ 100 nM

$$$$

Any idea what its IC50 is? The compound is C[C@H]1Cn2c(cc(OCc3cccc(C#N)c3)nc2=O)N1C [Example E72]
≤ 100 nM

And then CC1(C)Cn2c(cc(OCc3ccc(Oc4ccnc(Cl)c4)c(F)c3)nc2=O)N1 [Example E82] , what is it?
≤ 100 nM

Same for CN1c2cc(OCc3cc(F)c(Oc4ccnc(Cl)c4)c(F)c3)nc(=O)n2CC1(C)C [Example E30]
≤ 100 nM

Also check CN1c2cc(OCc3ccc(Oc4cncc(Cl)c4)c(F)c3)nc(=O)n2CC1(C)C [Example E63]
≤ 100 nM

Now try [2H]C([2H])(Oc1cc2n(c(=O)n1)CC(C)(C)N2C(C)C)c1cc(F)cc(F)c1 [Example E97] .
≤ 100 nM

Source: patent US9051325B2
